// data source = the supplement of paper PMC6555819

Test system: THRa:RXRa (NR concentration 90 nM, RXRa partner concentration 90 nM)
PROTOCOL TEXT: PBM binding z-score (relative to random genomic background probes); higher = stronger binding; sequences stand for … in GC…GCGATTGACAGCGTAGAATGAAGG
Would you kindly list PBM binding z-score for each of these sequences?
One number for each entry.

RESIDUES	ASSAY TARGET	PBM binding z-score
CTCCCAAGGTGAACAAGGTCGTTGATTACTATTC	THRa:RXRa (NR concentration 90 nM, RXRa partner concentration 90 nM)	3.19

For each listed entry, give its PBM binding z-score.
1. CTCGAAAGGTCGGTTGAGATGAGTATACGGATAA
2. ACTATTAGTTGAGACCAGGGCAACCGATAGGTTG
3. CGTCCAAGGTCAAATGTCAGTGAAGAGATGACGG

Ans:
1.72
1.79
4
